experiment: Stability in human hepatocytes; format: in vitro ADME; conditions: t1/2, Human Hepatocytes, Diastereoisomer A
Provide the recorded half-life at 5 µM for the entries that follow.
Numbers only, in min.

Okay, here is my list. What is half-life at 5 µM for each of these?
1. COC(=O)CCNC(=O)[C@@H]1OP(=O)(N[C@@H](Cc2cncs2)C(=O)OCc2ccccc2)OCC1(C)C (some centres unmarked)
2. COC(=O)CCNC(=O)[C@H](O)C(C)(C)COP1(=O)OCC(C)(C)[C@H](C(=O)NCCC(=O)OC)O1 (some centres unmarked)

Result block:
1. 36
2. 173

* * *

experiment: Stability in human plasma; type: in vitro ADME; details: human, plasma, Diastereoisomer B, 37° C., read-out: t1/2, Human Plasma, Diastereoisomer B (converted)
Parameter: half-life at 3 µM

Okay, here is my list. What is half-life at 3 µM for each of these?
1. COC(=O)CCNC(=O)[C@@H]1OP(=O)(NCCC(=O)OCc2ccccc2)OCC1(C)C (stereo partly drawn)
2. COC(=O)CCNC(=O)[C@@H]1OP(=O)(N[C@@H](C)C(=O)OCCc2ccccc2)OCC1(C)C (stereo partly drawn)
3. CC(C)(C)C(=O)OCOP1(=O)OCC(C)(C)[C@H](C(=O)NCCC(=O)OC2CCOC2)O1 (stereo partly drawn)
4. CC(C)(C)C(=O)OCO[P@@]1(=O)OCC(C)(C)[C@H](C(=O)NCCC(=O)OCCS(C)(=O)=O)O1 (single isomer, unassigned)
5. COC(=O)CCNC(=O)[C@@H]1OP(=O)(N[C@H](C(=O)OC(C)(C)C)C2CCCCC2)OCC1(C)C (stereo partly drawn)
6. COC(=O)CCNC(=O)[C@@H]1OP(=O)(OCCCN2CCOCC2)OCC1(C)C (stereo partly drawn)
7. COC(=O)CCNC(=O)[C@@H]1OP(=O)(OCOC(=O)c2ccncc2)OCC1(C)C (stereo partly drawn)

Result block:
1. > 60 min
2. 54 min
3. < 9.6 min
4. < 9.6 min
5. > 60 min
6. > 60 min
7. < 9.6 min

Okay, here is my list. What is half-life at 3 µM for each of these?
1. COC(=O)CCNC(=O)[C@@H]1OP(=O)(OCOC(=O)c2ccc(CN3CCCC3)cc2)OCC1(C)C (stereo partly drawn)
2. COC(=O)CCNC(=O)[C@@H]1OP(=O)(N[C@H](C)C(=O)OCc2cccnc2)OCC1(C)C (stereo partly drawn)

Result block:
< 9.6 min
39 min

* * *

assay: Stability in human plasma; format: in vitro ADME; conditions: human, plasma, Diastereoisomer A (upfield shift in 31P NMR), 37° C., read-out: t1/2, Human Plasma, Diastereoisomer A (converted)
Provide the recorded half-life at 3 µM for the entries that follow.

Observe how each entry below is paired with its result.
C[C@H](NP1(=O)OCC(C)(C)[C@H](C(=O)NCCC(=O)OC[C@H]2CCC(=O)N2)O1)C(=O)OCCc1ccccc1 (stereo partly drawn) [compound 47] = > 60 min
COC(=O)CCNC(=O)[C@@H]1OP(=O)(OCCc2cccnc2)OCC1(C)C (stereo partly drawn) [compound 61] = > 60 min

Please turn your attention to the following entry.
Query block: Requested field: half-life at 3 µM. Item: COC(=O)CCNC(=O)[C@@H]1OP(=O)(OCOC(=O)CN2CCN(C(C)=O)CC2)OCC1(C)C (stereo partly drawn) [compound 80]
Result block: 40.2 min

* * *

Provide the recorded half-life at 5 µM for the entries that follow.
assay: Stability in human hepatocytes; assay type: in vitro ADME; conditions: t1/2, Human Hepatocytes, Diastereoisomer A

COC(=O)CCNC(=O)[C@@H]1O[P@@](=O)(OCc2ccccc2)OCC1(C)C [compound 56] = < 15 min
CC(C)(C)C(=O)OCOP1(=O)OCC(C)(C)[C@H](C(=O)NCCC(=O)OCc2ccncc2)O1 (stereo in doubt) [Compound No. 71] = < 15 min

Please turn your attention to the following entry.
Query block: Requested field: half-life at 5 µM. Item: COC(=O)CCNC(=O)[C@@H]1OP(=O)(N[C@@H](Cc2ccccc2)C(=O)OCc2ccccc2)OCC1(C)C (stereo partly drawn) [compound 10]
Result block: < 15 min
